B1: Pistol ribozyme (parent)
chain: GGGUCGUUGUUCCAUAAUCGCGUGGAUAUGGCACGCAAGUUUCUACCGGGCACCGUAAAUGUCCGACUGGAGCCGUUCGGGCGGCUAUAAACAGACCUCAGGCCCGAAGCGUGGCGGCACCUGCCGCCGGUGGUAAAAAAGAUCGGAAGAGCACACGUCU

variants of: B1; assay: aptazyme ON/OFF ratio, guanine; higher = stronger switching; co-transcriptional cleavage with and without guanine
Each item that follows carries a reported aptazyme ON/OFF ratio.
Form rule: numeric answer, no unit written next to it.

Some variants with recorded aptazyme ON/OFF ratio:
MUTATION_DESCRIPTOR	aptazyme ON/OFF ratio
U7G U8C C12A C13A	1.13
U7C U8C G9A U10C C12G C13A	1.28
U7A G9C U10C U11A C12A C13G	1.06

Prompt: Looking for the measured aptazyme ON/OFF ratio of U7C U8C G9A U10G C12A , can you help?
Completion: 1.21

Prompt: Entry U7G U11C C12U C13G please
Completion: 1.1

Prompt: Entry U7C U8A G9A C13A please
Completion: 1.15

Prompt: Entry G9C U11A C12G C13G please
Completion: 1.24

Prompt: Entry U7A U8G G9A U10G U11A C13A please
Completion: 1.11

Prompt: Entry G9C U10C U11C please
Completion: 0.976

Prompt: Entry U7G U8G G9C U10A U11G C12U C13A please
Completion: 1.07

Prompt: Entry U7C U8A G9A U11G C12A please
Completion: 1.07

Prompt: Entry U8A U11G C12U C13A please
Completion: 1.14

Prompt: Entry U8A G9U U10C U11A C13G please
Completion: 1.03

Prompt: Entry U7C U8C G9A C12A please
Completion: 1.51

Reference for the values: the RNAGym collection of RNA variant scans (doi:10.1021/acssynbio.7b00057)
